Recorded values, source PubChem BioAssay.

For each of the compounds below, state its differentiation response.
Assay: AML differentiation inducers, ER-HoxA9 marrow cells – cell-based, GFP/MAC1 double positive, flow cytometry, validation set, primary screen (AID 588685);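 note: compound exposure lasts four days before antibody staining and flow analysis; 0% = DMSO wells and 100% = 5 µM fulvestrant positive control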
Details: hits give high values, normalized: vehicle 0, fulvestrant 100
A number alone suffices; assume %.

Task item: Entry CC(C[N+](C)(C)C)OC(N)=O (configuration not stated) needs its differentiation response filled in; supply it.
Reply: 0

Task item: Name the recorded differentiation response of the item `C=C(C)Cn1c(NCCOC)nc2c1c(=O)[nH]c(=O)n2C` in your answer.
Reply: 0.24

Task item: Indicate its recorded differentiation response; the compound in question is COc1cc2c3c(c1)C(C)CC(C)(C)N3C(=O)C2=O (configuration not stated)
Reply: 1.64

Task item: For the compound `COc1ccc(CCN=CC2=C(O)CC(C)(C)CC2=O)cc1` , report differentiation response.
Reply: 1.22

Task item: Return the recorded differentiation response value; entry: `Cc1cc(C(=O)Nc2ccccc2C(=O)N2CCCCC2)ccc1[N+](=O)[O-]`
Reply: -8.93

Task item: Give differentiation response for the following compound: `O=C(O)/C=C/c1cccc(OCc2ccccc2)c1`
Reply: -8.96

Task item: Please give measured differentiation response of the following entry: O=C(COc1ccccc1)Nc1ccc2c(c1)C(=O)N(CC1CCCO1)C2=O (configuration not stated)
Reply: -8.96

Task item: Return reported differentiation response. Input compound: `CCc1nc(N)nc(N)c1-c1ccc(Cl)cc1`
Reply: -3.28

Task item: Look up and state reported differentiation response for `COC(=O)c1ccccc1NC(=O)NCc1ccccc1`
Reply: 0

Task item: Read the entry `COCCNC(=O)CSc1ccc(Cl)cc1` and write its reported differentiation response.
Reply: -12.5

Task item: Assign differentiation response to the following record: CN1C2CCC1CC(OC(c1ccccc1)c1ccccc1)C2 (configuration not stated)
Reply: 26.6

Task item: Please indicate differentiation response recorded for `CCN(CC)CCOC(=O)C(c1ccccc1)c1ccccc1`
Reply: 37.4

====

Target: AP-2 complex subunit beta (Homo sapiens)
Assay: beta-arrestin/AP2 interaction blockers – biochemical, validation set, GST-AP2 beads, flow cytometry, pilot screen (AID 504541);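 note: AP2 carries R879A mutation and is captured from E. coli lysate; bead-bound FITC arrestin peptide fluorescence measuring arrestin peptide binding to AP2; 0% = DMSO wells and 100% = excess unlabeled arrestin peptide control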
Settings: FITC arrestin peptide, at 10 µM, AP2 beta2 appendage fragment, R879A mutant
Active and inactive are the calls of the source.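 Rule for the calls: active = inhibition above 54%, about 3 SD of non-fluorescent compounds; inactive = the rest.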
// one of Yes (active), No (inactive), no free text

Task item: // return assay outcome for `Cn1cc(CN2CCN(CCO)CC2)c(-c2ccc(Oc3ccccc3)cc2)n1`
Reply: No

Task item: Could you kindly confirm the outcome this assay logged for `CCOc1ccc(C(=O)C(C)=O)c(OCC)c1` ?
Reply: No

Task item: Which outcome was assigned to `O=C1c2cccc3cccc(c23)C(=O)N1c1ccccn1` in this test?
Reply: No

Task item: Test call for this compound, please: `COc1ccc(-n2cc(CNCc3cccnc3)c(-c3cccc(F)c3)n2)cc1`
Reply: No

Task item: Hi team, can someone confirm the assay call for `Cn1nc(-c2ccc(Cl)cc2)nc2c(=O)n(C)c(=O)nc1-2` ?
Reply: No

Task item: Which result was noted for this compound in the test: `COc1cc(NS(=O)(=O)c2ccc(N)cc2)nc(OC)n1`
Reply: No

Task item: What classification did `COC1CCN(Cc2cn(Cc3ccccc3)nc2-c2cc3ccccc3o2)CC1` end up with in this test?
Reply: No

Task item: Dear all, I need the recorded test outcome for `CN(C)CCOCCOc1ccc(Cl)cc1Br` , thank you.
Reply: No

Task item: Which result was noted for this compound in the test: `CCNC(=S)N1CCN(CCN2C(=O)c3cccc4cccc(c34)C2=O)CC1`
Reply: No

Task item: Could you please tell me the result logged for `CSCC[C@H](NC(=O)NC1CCCC1)C(=O)O` in this assay?
Reply: No

Task item: Per the assay record, what outcome was assigned to `COc1c(C=O)c(CCN(C)C(=O)c2ccc(F)cc2)cc2c1OCO2` ?
Reply: No

Task item: Field: outcome | Entry: `CC(C)N1C(=O)/C(=C\c2nc3ccccc3c(=O)[nH]2)c2ccccc21`
Reply: No

Task item: What is the recorded call for this compound in the test? `Cc1c(Cc2ccccc2)c(=O)oc2c(CN(C)C)c(O)c(Cl)cc12`
Reply: No

Task item: Short answer needed: outcome of this test for CC1(C)CC(C(CC(=O)O)c2ccccc2)CCO1 (centres undefined) ?
Reply: No

Task item: What call does the record list for `Cc1cn([C@H]2C=C[C@@H](CO)O2)c(=O)[nH]c1=O` ?
Reply: No

Task item: Outcome? `N#CCC(N)=C(C#N)C#N`
Reply: No

Task item: Recorded call for COC(=O)C1=C(C)NC(C)=C([N+](=O)[O-])C1c1ccccc1C(F)(F)F (centres undefined) ?
Reply: No

Task item: Recorded test call requested for O=C(Nc1ncc2c(n1)CC(c1ccco1)CC2=O)c1ccco1 (centres undefined)
Reply: No

Task item: Write down the call the test reported for this compound. Item: COC(=O)C1=C(C)NC(C)=C(C(=O)OCCN(C)Cc2ccccc2)C1c1cccc([N+](=O)[O-])c1 (centres undefined)
Reply: Yes

Task item: Each compound tested received a call. Report the one for `Cc1ccccc1C(=O)NNc1ncnc2c1cnn2C` .
Reply: No

Task item: Hi, sorry to bother you, what did the test record for `NNC(=O)c1ccncc1` ?
Reply: No

Task item: Called result for `CCCC(=O)Nc1ccccc1NC(C)=O`
Reply: No

Task item: Which outcome was assigned to `COc1ccccc1C(=O)Oc1ccc2c(c1)O/C(=C\c1ccncc1)C2=O` in this test?
Reply: No

Task item: Please state the recorded outcome for this compound: `O=C(NCCN1CCN(c2ccccc2)CC1)c1cccc(Br)c1`
Reply: No

====

Test: yeast AGP1-GFP level changes, GLN3 branch – cell-based, multiplex flow cytometry, S. cerevisiae, primary screen (AID 1887);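 note: AGP1-GFP fusion strain of S. cerevisiae within a five-strain barcoded multiplex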
Details: 3 h, at 10 µM, hits give high values
Results filed as inconclusive are left out.
quantity-measured: GFP response, % of DMSO (%)
Numeric answer only, unit % assumed.

Task item: Please report the measured GFP response, % of DMSO for CN1CC2CCCC3(C1)C(=O)NC1(CCCCC1)N=C23 (stereo unspecified)
Reply: 107

Task item: Respond only with GFP response, % of DMSO recorded for Cc1ccc(CN2CCN(Cc3cn[nH]c3C3CCCCC3)CC2CCO)cc1 (stereo unspecified)
Reply: 122

Task item: # return recorded GFP response, % of DMSO for entry `CC1=NN(c2ccccc2)C(=O)C1`
Reply: 111

Task item: Using the record for CC12CCC(C(=O)NNc3ccccc3)(C(=O)C1=O)C2(C)C (stereo unspecified) , state its measured GFP response, % of DMSO.
Reply: 100

Task item: Answer with the recorded GFP response, % of DMSO of `CCOC(=O)C(Cc1cc(C(C)=O)ccc1OC(C)C)C(=O)OCC` only.
Reply: 89.1

Task item: Give reported GFP response, % of DMSO value for `Cc1ccc2occ(C(=O)c3ccco3)c(=O)c2c1`
Reply: 86.1

Task item: Determine from records and report GFP response, % of DMSO for COc1ccc(C2=C(CN(C)C)C(c3ccccc3)c3ccccc3O2)cc1 (stereo unspecified)
Reply: 99.7

Task item: Give GFP response, % of DMSO for CCOC(=O)C1=C(C)NC(C)=C(C(=O)OC)C1c1cccc([N+](=O)[O-])c1 (stereo unspecified)
Reply: 91.5

Task item: Fill in GFP response, % of DMSO for record `NCc1ccccc1COc1ccccc1`
Reply: 111

Task item: Determine its reported GFP response, % of DMSO: `C[C@@H]1C[C@H]2[C@@H]3C[C@H](F)C4=CC(=O)C=C[C@]4(C)[C@@]3(F)[C@@H](O)C[C@]2(C)[C@@]1(O)C(=O)COC(=O)C(C)(C)C`
Reply: 99.2

Task item: Specify GFP response, % of DMSO for `COc1cc(-c2cccs2)cc(=O)c2c(C)oc(C)c12` and stop.
Reply: 93.2

====

Test: yeast AGP1-GFP level changes, GLN3 branch – cell-based, multiplex flow cytometry, S. cerevisiae, primary screen (AID 1887);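 note: AGP1-GFP fusion strain of S. cerevisiae within a five-strain barcoded multiplex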
Conditions: 3 h, at 10 µM, hits give high values
Records with an inconclusive call do not appear.
Field: GFP response, % of DMSO. Provide a value for each of the compounds that follow.
Give a bare numeral; the unit % is implied.

Task item: Give a short answer stating reported GFP response, % of DMSO for `O=C(CN1C(=O)/C(=C/c2cccc(Br)c2)SC1=S)Nc1cccnc1` .
Reply: 109

Task item: Name the recorded GFP response, % of DMSO of the item `CCOC(=O)c1oc2cc(O)cc(C)c2c(=O)c1-c1cscn1` in your answer.
Reply: 102

Task item: Note GFP response, % of DMSO for the compound shown: `CO[C@@]1(NC(=O)Cc2cccs2)C(=O)N2C(C(=O)O)=C(COC(N)=O)CS[C@@H]21`
Reply: 119

Task item: Could you please provide reported GFP response, % of DMSO for `COc1ccc(C(=O)NCc2cccnc2)cc1` ? Thanks!
Reply: 94.6

Task item: State its GFP response, % of DMSO: `N/C(=N\OC(=O)c1cccc(Br)c1)c1ccncc1`
Reply: 94.2

Task item: # return recorded GFP response, % of DMSO for input CCC(C)NCCOc1ccccc1C (stereo not drawn)
Reply: 108

Task item: Using known records, supply GFP response, % of DMSO for `Cc1cccc(Nc2ccccc2C(=O)O)c1C`
Reply: 102

Task item: Return GFP response, % of DMSO (reported value) for this compound: `COc1cc(C(=O)OCCn2c(=O)c3c(ncn3CCN(C)C)n(C)c2=O)cc(OC)c1OC`
Reply: 117

Task item: Quick one: give measured GFP response, % of DMSO for CNCCC(Oc1ccc(C(F)(F)F)cc1)c1ccccc1 (stereo not drawn)
Reply: 90.3

Task item: Read the entry `COc1cc(CNCCc2c[nH]c3ccccc23)cc(Cl)c1OCC(N)=O` and write its reported GFP response, % of DMSO.
Reply: 97.2

Task item: Please give measured GFP response, % of DMSO of the following entry: `C=CCNC(=O)c1ccc(-c2cccc([N+](=O)[O-])c2)o1`
Reply: 95.1

Task item: Consider the compound `O=C(O)CCCc1ccccc1` and give its recorded GFP response, % of DMSO.
Reply: 99.7

Task item: Answer with reported GFP response, % of DMSO of `COc1cc(C(=O)N/C(=C\c2cn(C)c3ccccc23)C(=O)NCCCO)cc(OC)c1OC`
Reply: 88

Task item: Indicate its recorded GFP response, % of DMSO; the compound in question is `O=C(NCCc1ccccc1)C1CCN(C2CCN(Cc3ccco3)CC2)CC1`
Reply: 120

Task item: Give the reported value of GFP response, % of DMSO for this record: CC(C)COC(=O)C1C(=O)CC(C)(O)C(C(=O)OCC(C)C)C1c1cccnc1 (stereo not drawn)
Reply: 88.4

Task item: Specify reported GFP response, % of DMSO for the compound shown: `CCOC(=O)n1c(=O)oc2ccccc21`
Reply: 107

Task item: Output measured GFP response, % of DMSO for this item: CCc1cc2c(=O)c(-c3nc(C)cs3)coc2cc1OC(C)C(=O)NCCO (stereo not drawn)
Reply: 92.4

Task item: Given the compound Cc1ccc(S(=O)(=O)NC(C(=O)Oc2ccc3c(C(F)(F)F)cc(=O)oc3c2)c2ccccc2)cc1 (stereo not drawn) , write its reported GFP response, % of DMSO.
Reply: 107

Task item: Return value of GFP response, % of DMSO for input `COc1ccccc1C(=O)Nc1cc2cc(Br)ccc2oc1=O` , no commentary.
Reply: 101

Task item: State its GFP response, % of DMSO: `CC(C)(C)C(=O)NC(=S)NNC(=O)c1ccncc1`
Reply: 109

Task item: Identify GFP response, % of DMSO associated with the compound `CC1(C)Cc2nc3sc4c(=O)n(CC(N)=O)cnc4c3cc2CO1`
Reply: 82.2

Task item: For the compound `O=C(OCCNC(=O)c1ccc2ccccc2n1)c1ccc(F)cc1` , give its reported GFP response, % of DMSO.
Reply: 88.9

Task item: Read off the recorded GFP response, % of DMSO for `COc1ccc2oc(=O)c(C(=O)Nc3ccccc3-c3ccccc3)cc2c1`
Reply: 113
